Values from PubChem BioAssay AID1845226

Assay: Confirmatory fluorescence-based thiol-reactive (MSTI) qHTS assay for identification of artifact compounds
Details: MSTI thiol-reactivity probe, 1 h; series mostly up to 39.2 µM
Results filed as inconclusive are left out. Activity calls are given as the source filed them. The call rests on the fitted dose curve; in most records, active means well fitted inhibition curve with a large enough effect; inconclusive means small, poorly fitted or top-dose-only effect; inactive means no such curve, though single readings can be large or run the other way.
Respond only with the outcome that fits, drawn from active, inactive

Short answer needed: outcome of this test for `O=C(O)c1c(CNCc2cccc(F)c2)c2ccccc2n1Cc1ccccc1` ? inactive

Can you look up the reported call for COC(=O)c1ccc(NC(=O)CC2C(=O)N(c3ccccc3)C(=O)N2Cc2cccs2)cc1 (stereo not given) for me? inactive

Short answer needed: outcome of this test for CCCC(N[C@@H](C)C(=O)N1[C@H](C(=O)O)C[C@@H]2CCCC[C@@H]21)C(=O)OCC (stereo not given in full) ? inactive

Entry `O=C(Nc1ccc2oc(-c3cccc4c(Br)cccc34)nc2c1)c1cccnc1` : call = ? inactive

Hi team, can someone confirm the assay call for `C/C(=C\c1ccc2c(c1)OCO2)C1Nc2cccc3cccc(c23)N1` ? active

Called result for COc1ccc(C2C(C(=O)Nc3ccccc3)=C(C)Nc3c(C(=O)Nc4ccccc4)cnn32)cc1 (stereo not given) inactive

Could you kindly confirm the outcome this assay logged for `COc1ccc(CNC(=O)CCc2c(C)nc3c4cccnc4nn3c2C)cc1` ? inactive

Please share the test call associated with `CCOC(=O)c1c(C)c(C(=O)NCc2ccc(Cl)cc2)c(C)n1CC` . inactive

// param item: CC1CC(C)CN(c2oc(-c3ccc(OCc4ccc(Cl)cc4)cc3)nc2C#N)C1 (stereo not given) ; yields the recorded call inactive

// return assay outcome for `CCOc1ccc(CNC(=O)c2cnc(SC)nc2CC)cc1` inactive

What did the test return for CCCS(=O)(=O)N1CC(=O)N(c2ccc(C)cc2)C(C)(C(=O)NC2CCCCCC2)C1 (stereo not given) ? inactive

Fill in: this test's call for `C=C1Cc2c(Cl)cc3[nH]c4c5c3c2[C@@]2(O)[C@@H]1C[C@@H]2C(C)(C)O[C@H]5[C@@H]1CC[C@@]2(O)[C@@]35O[C@@H]3[C@@H](O)[C@@H](C(=O)O)O[C@H]5CC[C@]2(C)[C@@]41C` is ___ active

Assay outcome for `COc1ccc(C)cc1NC(=O)CN1C(=O)COc2ccc(S(=O)(=O)NC3CCCC3)cc21` : what was it? inactive

GET /call?item= CCCS(=O)(=O)N1CCCC(C(=O)NCCCOC)C1 (stereo not given) returns the recorded outcome of this test. inactive

What did this assay record as the result for COC(=O)c1ccc(NC(=O)CC2C(=O)N(c3ccccc3)C(=O)N2Cc2ccco2)cc1 (stereo not given) ? inactive

So what was the verdict on O=C1CCCC2=C1C(c1[nH]ncc1Cl)NC(=NCCc1ccccc1)N2 (stereo not given) in this test? inactive

Returns: the outcome recorded for `CCCN(C(=O)Cc1c(C(=O)O)[nH]c2ccc(Cl)cc12)c1ccc(OCC)cc1` in this assay. inactive

Which outcome was entered for the molecule `COc1ccc(C2=NN(CCC(=O)NCCc3ccccc3)C(=O)CC2)cc1` in this test? inactive

Lab log entry: `Cc1ccc(CN(Cc2ccco2)C(=O)COc2ccc(Cl)cc2Cl)cc1` — outcome as called in the assay? inactive

In this assay, the call recorded for `COc1ccc(-c2coc3cc(O)ccc3c2=O)c(OC)c1O` was what? inactive

Tell me the assay call for `CCc1ccc2c(O)c3c(cc2c1C(=O)OC)C(=O)c1c(O)ccc(O)c1C3=O` please. active

I would be grateful if you could indicate the recorded call for `COCCn1c(=N)c(C(=O)NC2CCCC2)cc2c(=O)n3cc(C)ccc3nc21` . inactive

Write down the call the test reported for this molecule. Item: `CC(C)C(=O)OC1=CN(Cc2ccccc2)S(=O)(=O)c2ccccc21` inactive

Tell me the recorded outcome of this test for `c1coc(-c2nc3cc4ccccc4cc3nc2-c2ccco2)c1` . active

What is the recorded call for this molecule in the test? `CN(Cc1ccccc1)c1ncnc2c1nc1n2CCCC1` inactive

Tell me the recorded outcome of this test for `CC(C)c1cnc2c(c1SCC(=O)Nc1cccc([N+](=O)[O-])c1)c(=O)n(C)c(=O)n2C` . inactive

Returns: the outcome recorded for `COc1cccc(N2CCN(c3c4c(nc5nncn35)CCC4)CC2)c1` in this assay. inactive

How did this test come out for `COc1ccccc1N1CCN(S(=O)(=O)c2c(C)nc3sc(C)c(C)n3c2=O)CC1` ? inactive

Field: outcome | Entry: `O=C(CSc1nnc(-c2cccc(F)c2)c(-c2cccc(F)c2)n1)NC1CCCCC1` inactive

Returns: the outcome recorded for `O=C1c2ccccc2C(=O)c2c(O)c(O)cc(O)c21` in this assay. active

Test call for this molecule, please: `CCOC(=O)c1sc2cccc(F)c2c1S(=O)(=O)NCc1ccccc1Cl` inactive

Recorded test call requested for `O=S(=O)(Nc1ccc(S(=O)(=O)Nc2nccs2)cc1)c1ccc2ccccc2c1` inactive

Tell me the assay call for `Cc1c(C(=O)Nc2ccc(-n3c(C)nc4ccccc4c3=O)cc2)cccc1[N+](=O)[O-]` please. inactive

// param item: `O=C(COc1ccccc1Cl)NCC1(N2CCOCC2)CCCCC1` ; yields the recorded call inactive

Give the logged outcome of this assay for the following molecule: `Cc1sc2ncn(CC(=O)N3CCN(c4ccccc4)CC3)c(=O)c2c1S(=O)(=O)N1CCC(C)CC1` inactive

Please state the recorded outcome for this molecule: `CCOc1ccc(NC(=O)CSc2nnc3scc(-c4ccccc4)n23)cc1` inactive

Fill in: this test's call for `Cc1ccc(OCCn2c(CCNC(=O)OC(C)(C)C)nc3ccccc32)cc1` is ___ inactive

Call for entry `Fc1ccc2c(c1)-c1nc(-c3ccccc3)cc(-c3ccccc3)c1CO2` : inactive

What classification did `O=C(CNC(=O)C(c1ccccc1)c1ccccc1)OCC(=O)c1ccc2ccccc2c1` end up with in this test? inactive

Per the assay record, what outcome was assigned to `Cc1cc(C)cc(NC(=O)CSc2oc(-c3cccs3)nc2S(=O)(=O)c2ccccc2)c1` ? inactive
